Give measured IC50 for each item. Keep answers brief.
Biological target: hVR1 (Homo sapiens)
Sequence (Q8NER1 whole entry): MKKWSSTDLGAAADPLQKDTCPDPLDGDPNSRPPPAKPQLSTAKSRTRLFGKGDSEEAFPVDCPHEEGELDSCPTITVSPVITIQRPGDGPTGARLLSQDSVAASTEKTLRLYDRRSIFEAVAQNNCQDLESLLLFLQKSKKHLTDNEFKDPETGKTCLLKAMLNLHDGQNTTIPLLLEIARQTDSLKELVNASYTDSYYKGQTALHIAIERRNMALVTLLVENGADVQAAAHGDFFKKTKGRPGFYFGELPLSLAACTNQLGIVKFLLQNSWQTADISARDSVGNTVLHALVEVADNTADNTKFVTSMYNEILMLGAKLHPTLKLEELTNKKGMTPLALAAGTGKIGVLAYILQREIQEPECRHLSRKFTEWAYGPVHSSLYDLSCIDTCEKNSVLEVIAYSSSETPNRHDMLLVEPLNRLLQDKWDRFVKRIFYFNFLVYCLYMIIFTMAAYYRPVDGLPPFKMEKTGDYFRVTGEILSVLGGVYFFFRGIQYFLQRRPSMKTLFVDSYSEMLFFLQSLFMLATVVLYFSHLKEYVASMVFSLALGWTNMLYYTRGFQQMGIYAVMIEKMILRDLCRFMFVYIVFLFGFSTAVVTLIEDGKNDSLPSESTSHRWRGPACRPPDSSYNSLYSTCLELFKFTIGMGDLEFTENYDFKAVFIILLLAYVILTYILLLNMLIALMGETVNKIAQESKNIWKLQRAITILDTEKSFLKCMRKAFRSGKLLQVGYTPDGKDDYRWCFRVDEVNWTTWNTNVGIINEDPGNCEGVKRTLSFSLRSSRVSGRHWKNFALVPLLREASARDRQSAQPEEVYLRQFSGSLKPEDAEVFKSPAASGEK
Assay: Human VR1 (hVR1) Functional Assay (FLIPR intracellular calcium, capsaicin challenge)
Conditions: capsaicin 0.030 μM; HEK293 cells expressing hVR1
The reply should contain only the number, in nM.

[Q] Please give the measured IC50 for this compound: CS(=O)(=O)Nc1ccccc1-c1ccc2[nH]c(C3CC3c3ccc(C(F)(F)F)cc3)nc2c1 (centres unmarked)
[A] 182

[Q] Please give the measured IC50 for this compound: "Oc1ccccc1-c1cc2nc(/C=C/c3ccc(C(F)(F)F)cc3)[nH]c2cc1F"
[A] 440

[Q] Please give the measured IC50 for this compound: "CC(C)(C)c1ccc(/C=C/c2nc3cc(-c4ccccc4CO)ccc3[nH]2)cc1"
[A] 10

[Q] Please give the measured IC50 for this compound: "NS(=O)(=O)c1ccccc1-c1ccc2[nH]c(/C=C/c3ccccc3Cl)nc2c1"
[A] 17

[Q] Please give the measured IC50 for this compound: NC(=O)c1ccccc1-c1ccc2[nH]c(C3CC3c3ccc(C(F)(F)F)cc3)nc2c1 (centres unmarked)
[A] 19

[Q] Please give the measured IC50 for this compound: "NS(=O)(=O)c1ccccc1-c1ccc2[nH]c(/C=C/c3ccc(SC(F)(F)F)cc3)nc2c1"
[A] 12

[Q] Please give the measured IC50 for this compound: "CC(C)(C)c1ccc(/C=C/c2nc3cc(-c4ccccc4N)ccc3[nH]2)cc1"
[A] 210

[Q] Please give the measured IC50 for this compound: "CS(=O)(=O)Nc1ccccc1-c1ccc2[nH]c(/C=C/c3ccc(OCC(F)(F)F)cc3)nc2c1"
[A] 301

* * *

Molecular target: UniProtKB Q8NER1
Experiment: Human VR1 (hVR1) Functional Assay (FLIPR intracellular calcium, capsaicin challenge)
Details: capsaicin 0.030 μM; HEK293 cells expressing hVR1
REPORTED PROPERTY: log10(IC50) (log10 of the value in nM)
The common logarithm of IC50 in nM is what is listed.

[Q] Please give the measured log10(IC50) for this compound: "OCc1ccccc1-c1ccc2[nH]c(/C=C/c3ccc(C(F)(F)F)cc3)nc2c1"
[A] 1.83

[Q] Please give the measured log10(IC50) for this compound: "NS(=O)(=O)c1ccccc1-c1ccc2[nH]c(/C=C/c3cc(Br)ccc3F)nc2c1"
[A] 1.60

[Q] Please give the measured log10(IC50) for this compound: "O=S(=O)(c1ccc(/C=C/c2nc3cc(-c4ccccc4CO)ccc3[nH]2)cc1)C(F)(F)F"
[A] 1.34

[Q] Please give the measured log10(IC50) for this compound: "CC(C)(C)c1ccc(CCc2nc3cc(-c4ccccc4O)ccc3[nH]2)cc1"
[A] 2.58

[Q] Please give the measured log10(IC50) for this compound: "CC(C)(C)c1ccc(/C=C/c2nc3cc(-c4ccccc4C(N)=O)c(C(F)(F)F)cc3[nH]2)cc1"
[A] 1.67

[Q] Please give the measured log10(IC50) for this compound: "CNS(=O)(=O)c1ccccc1-c1ccc2[nH]c(/C=C/c3ccc(F)c(C(F)(F)F)c3)nc2c1"
[A] 1.63

[Q] Please give the measured log10(IC50) for this compound: "CC(C)c1ccc(/C=C/c2nc3cc(-c4ccccc4S(N)(=O)=O)ccc3[nH]2)cc1"
[A] 0.78

* * *

Target: hVR1 (Homo sapiens)
Construct: expressed in transfected cells; host or cells: HEK293
Assay: Human VR1 (hVR1) Functional Assay (FLIPR intracellular calcium, capsaicin challenge)
Format: cell-based
Settings: test concentration 1 μM; capsaicin 0.030 μM; HEK293 cells expressing hVR1
Give measured inhibition at 1 µM for each item. Keep answers brief.
The reply should contain only the number, in %.

[Q] Checklist item: inhibition at 1 µM tested on hVR1 (Homo sapiens), entry "NS(=O)(=O)c1ccccc1-c1ccc2[nH]c(/C=C/c3ccc(S(=O)(=O)C(F)(F)F)cc3)nc2c1" , value?
[A] 99

[Q] Checklist item: inhibition at 1 µM tested on hVR1 (Homo sapiens), entry "CNS(=O)(=O)c1ccccc1-c1ccc2[nH]c(/C=C/c3c(F)cccc3Cl)nc2c1" , value?
[A] 89

[Q] Checklist item: inhibition at 1 µM tested on hVR1 (Homo sapiens), entry "CNS(=O)(=O)c1ccccc1-c1ccc2[nH]c(/C=C/c3ccc(S(=O)(=O)C(F)(F)F)cc3)nc2c1" , value?
[A] 98

[Q] Checklist item: inhibition at 1 µM tested on hVR1 (Homo sapiens), entry "CC(C)(O)c1ccccc1-c1ccc2[nH]c(C#Cc3cccc(C(F)(F)F)c3)nc2c1" , value?
[A] 101

[Q] Checklist item: inhibition at 1 µM tested on hVR1 (Homo sapiens), entry "CC(C)(C)C(=O)Nc1ccccc1-c1ccc2[nH]c(/C=C/c3ccc(C(F)(F)F)cc3)nc2c1" , value?
[A] 21

[Q] Checklist item: inhibition at 1 µM tested on hVR1 (Homo sapiens), entry "NS(=O)(=O)c1ccccc1-c1ccc2[nH]c(/C=C/c3ccc(F)c(Cl)c3)nc2c1" , value?
[A] 98

[Q] Checklist item: inhibition at 1 µM tested on hVR1 (Homo sapiens), entry "CS(=O)(=O)Nc1ccccc1-c1ccc2[nH]c(/C=C/c3ccc(F)c(Cl)c3)nc2c1" , value?
[A] 64

[Q] Checklist item: inhibition at 1 µM tested on hVR1 (Homo sapiens), entry "NS(=O)(=O)c1ccccc1-c1ccc2[nH]c(/C=C/c3cc(F)cc(C(F)(F)F)c3)nc2c1" , value?
[A] 96

[Q] Checklist item: inhibition at 1 µM tested on hVR1 (Homo sapiens), entry "NS(=O)(=O)c1ccccc1-c1ccc2[nH]c(/C=C/c3ccccc3)nc2c1" , value?
[A] 99

[Q] Checklist item: inhibition at 1 µM tested on hVR1 (Homo sapiens), entry "CC(=O)c1ccccc1-c1ccc2[nH]c(/C=C/c3ccc(C(C)(C)C)cc3)nc2c1" , value?
[A] 100

[Q] Checklist item: inhibition at 1 µM tested on hVR1 (Homo sapiens), entry "CNS(=O)(=O)c1ccccc1-c1ccc2[nH]c(/C=C/c3ccc(SC(F)(F)F)cc3)nc2c1" , value?
[A] 99

[Q] Checklist item: inhibition at 1 µM tested on hVR1 (Homo sapiens), entry "CC(C)(C)c1ccc(/C=C/c2nc3cc(-c4ccccc4O)c(C(F)(F)F)cc3[nH]2)cc1" , value?
[A] 33

[Q] Checklist item: inhibition at 1 µM tested on hVR1 (Homo sapiens), entry "CC(C)(O)c1ccccc1-c1ccc2[nH]c(/C=C/c3ccc(S(=O)(=O)C(F)(F)F)cc3)nc2c1" , value?
[A] 100

[Q] Checklist item: inhibition at 1 µM tested on hVR1 (Homo sapiens), entry "NS(=O)(=O)c1ccccc1-c1ccc2[nH]c(CCc3ccc(Cl)c(C(F)(F)F)c3)nc2c1" , value?
[A] 96

[Q] Checklist item: inhibition at 1 µM tested on hVR1 (Homo sapiens), entry "CCOc1ccc(/C=C/c2nc3cc(-c4ccccc4S(N)(=O)=O)ccc3[nH]2)cc1" , value?
[A] 98

[Q] Checklist item: inhibition at 1 µM tested on hVR1 (Homo sapiens), entry "CC(=O)Nc1ccccc1-c1ccc2[nH]c(/C=C/c3ccc(C(C)(C)C)cc3)nc2c1" , value?
[A] 78

[Q] Checklist item: inhibition at 1 µM tested on hVR1 (Homo sapiens), entry "CNS(=O)(=O)c1ccccc1-c1ccc2[nH]c(/C=C/c3c(F)cccc3F)nc2c1" , value?
[A] 77

[Q] Checklist item: inhibition at 1 µM tested on hVR1 (Homo sapiens), entry "CS(=O)(=O)c1ccccc1-c1ccc2[nH]c(/C=C/c3ccc(C(F)(F)F)cc3)nc2c1" , value?
[A] 98

[Q] Checklist item: inhibition at 1 µM tested on hVR1 (Homo sapiens), entry "NC(=O)c1ccccc1-c1ccc2[nH]c(/C=C/c3ccc(F)c(F)c3)nc2c1" , value?
[A] 6

[Q] Checklist item: inhibition at 1 µM tested on hVR1 (Homo sapiens), entry CC(O)c1ccccc1-c1ccc2[nH]c(/C=C/c3ccc(C(F)(F)F)cc3)nc2c1 (stereo not drawn) , value?
[A] 100

[Q] Checklist item: inhibition at 1 µM tested on hVR1 (Homo sapiens), entry "CNS(=O)(=O)c1ccccc1-c1ccc2[nH]c(/C=C/c3ccc(Cl)cc3F)nc2c1" , value?
[A] 99

[Q] Checklist item: inhibition at 1 µM tested on hVR1 (Homo sapiens), entry "NS(=O)(=O)c1ccccc1-c1ccc2[nH]c(/C=C/c3cccc(Cl)c3F)nc2c1" , value?
[A] 97

[Q] Checklist item: inhibition at 1 µM tested on hVR1 (Homo sapiens), entry "COC(=O)Nc1ccccc1-c1ccc2[nH]c(/C=C/c3ccc(C(F)(F)F)cc3)nc2c1" , value?
[A] 98

[Q] Checklist item: inhibition at 1 µM tested on hVR1 (Homo sapiens), entry "CC(=O)Nc1ccccc1-c1cc2nc(/C=C/c3ccc(C(F)(F)F)cc3)[nH]c2cc1F" , value?
[A] 41

[Q] Checklist item: inhibition at 1 µM tested on hVR1 (Homo sapiens), entry "CC(C)(C)c1ccc(/C=C/c2nc3cc(-c4ccccc4C(C)(C)O)ccc3[nH]2)cc1" , value?
[A] 100

[Q] Checklist item: inhibition at 1 µM tested on hVR1 (Homo sapiens), entry "CNS(=O)(=O)c1ccccc1-c1ccc2[nH]c(CCc3cccc(C(F)(F)F)c3)nc2c1" , value?
[A] 100

[Q] Checklist item: inhibition at 1 µM tested on hVR1 (Homo sapiens), entry "NS(=O)(=O)c1ccccc1-c1ccc2[nH]c(C#Cc3ccccc3)nc2c1" , value?
[A] 99

[Q] Checklist item: inhibition at 1 µM tested on hVR1 (Homo sapiens), entry "NS(=O)(=O)c1ccccc1-c1ccc2[nH]c(CCc3cc(C(F)(F)F)cc(C(F)(F)F)c3)nc2c1" , value?
[A] 98

[Q] Checklist item: inhibition at 1 µM tested on hVR1 (Homo sapiens), entry "CC(=O)Nc1cccc(-c2ccc3[nH]c(/C=C/c4ccc(F)c(F)c4)nc3c2)c1" , value?
[A] 4

[Q] Checklist item: inhibition at 1 µM tested on hVR1 (Homo sapiens), entry "CNS(=O)(=O)c1ccccc1-c1ccc2[nH]c(/C=C/c3ccccc3C(F)(F)F)nc2c1" , value?
[A] 82

[Q] Checklist item: inhibition at 1 µM tested on hVR1 (Homo sapiens), entry "CNS(=O)(=O)c1ccccc1-c1ccc2[nH]c(/C=C/c3cccc(F)c3F)nc2c1" , value?
[A] 73

[Q] Checklist item: inhibition at 1 µM tested on hVR1 (Homo sapiens), entry "CC(C)(C)OC(=O)Nc1ccccc1-c1ccc2[nH]c(/C=C/c3ccc(C(F)(F)F)cc3)nc2c1" , value?
[A] 12

[Q] Checklist item: inhibition at 1 µM tested on hVR1 (Homo sapiens), entry "NS(=O)(=O)c1ccccc1-c1ccc2[nH]c(CCc3ccccc3F)nc2c1" , value?
[A] 93
